Target: Tyrosine-protein kinase SYK (Homo sapiens, UniProt P43405); further: in the data inactive means no Kd found up to 30 µM
Calls of active or inactive are those of the source.
Pick one and only one: true (1) for active, false (0) for inactive

COCCNCc1ccc(-c2cc3nccc(Oc4ccc(NC(=S)NC(=O)Cc5ccc(F)cc5)cc4F)c3s2)nc1 true (1)
O=C(O)[C@]1(Cc2cccc(Nc3nccs3)n2)CC[C@@H](Oc2cccc(Cl)c2F)CC1 false (0)
CCn1c(=O)c(-c2cc[nH]n2)cc2c(C)nc(N)nc21 false (0)
CC(C)Nc1cc(-c2c[nH]c(C(=O)N[C@H](CO)c3cccc(Cl)c3)c2)c(Cl)cn1 false (0)
CNC(=O)c1ccc(C)c(-n2c(C)cc(OCc3ccc(F)cc3F)c(Br)c2=O)c1 false (0)

--- query ---
Could you please tell me the result logged for CCS(=O)(=O)N1CC(CC#N)(n2cc(-c3ncnc4[nH]ccc34)cn2)C1 in this assay? false (0)

###

Target: Tyrosine-protein kinase FRK (Homo sapiens, UniProt P42685); further: in the data inactive means no Kd found up to 30 µM
Sequence (P42685 whole entry): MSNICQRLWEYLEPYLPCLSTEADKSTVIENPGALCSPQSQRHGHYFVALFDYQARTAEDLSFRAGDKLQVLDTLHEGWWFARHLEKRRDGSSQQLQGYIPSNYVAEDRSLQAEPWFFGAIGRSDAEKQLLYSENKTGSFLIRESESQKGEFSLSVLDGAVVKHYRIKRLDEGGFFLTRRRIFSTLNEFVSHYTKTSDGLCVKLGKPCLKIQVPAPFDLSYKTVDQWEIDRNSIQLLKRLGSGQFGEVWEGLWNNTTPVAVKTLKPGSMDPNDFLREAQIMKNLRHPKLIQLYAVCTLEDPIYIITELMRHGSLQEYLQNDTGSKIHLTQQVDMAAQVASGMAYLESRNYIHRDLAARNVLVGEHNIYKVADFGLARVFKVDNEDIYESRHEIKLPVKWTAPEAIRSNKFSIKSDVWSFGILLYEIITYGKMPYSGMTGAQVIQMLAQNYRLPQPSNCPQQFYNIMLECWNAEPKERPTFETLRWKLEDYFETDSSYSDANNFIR
Active and inactive are the calls of the source.
Pick one and only one: Y (active), N (inactive)

// known answers, use as guide
compound	assigned-label
Cc1c(F)cc(C(=O)NC2CC2)cc1-c1ccc(C(=O)NCC(C)(C)C)cn1 [LOSMAPIMOD]	N
O=C1NC(=O)/C(=C/c2ccc3nccc(-c4ccncc4)c3c2)S1 [GSK-1059615]	N
CCS(=O)(=O)N1CC(CC#N)(n2cc(-c3ncnc4[nH]ccc34)cn2)C1 [BARICITINIB]	N
C[C@@H]1CN(Cc2ccc(F)cc2)[C@@H](C)CN1C(=O)c1cc2c(C(=O)C(=O)N(C)C)cn(C)c2cc1Cl [TALMAPIMOD]	N
CNC(=O)c1cc(Oc2ccc(NC(=O)Nc3ccc(Cl)c(C(F)(F)F)c3)c(F)c2)ccn1 [REGORAFENIB]	N

Could you please tell me the result logged for CCn1c(=O)c(-c2cc[nH]n2)cc2c(C)nc(N)nc21 [VOXTALISIB] in this assay? N

Could you please tell me the result logged for CNC(=O)c1ccc(C)c(-n2c(C)cc(OCc3ccc(F)cc3F)c(Br)c2=O)c1 [PH-797804] in this assay? N

Could you please tell me the result logged for Cc1cc2c(F)c(Oc3ncnn4cc(OC[C@@H](C)OC(=O)[C@H](C)N)c(C)c34)ccc2[nH]1 [BRIVANIB ALANINATE] in this assay? N

Could you please tell me the result logged for Cc1ccc(-n2nc(C(C)(C)C)cc2NC(=O)NCc2cc(F)ccc2Oc2ccc3c(cnn3CCO)c2)cc1 [PEXMETINIB] in this assay? Y

###

Biological target: Ribosomal protein S6 kinase alpha-6 (Homo sapiens); further: in the data inactive means no Kd found up to 30 µM
Sequence (Q9UK32 whole entry): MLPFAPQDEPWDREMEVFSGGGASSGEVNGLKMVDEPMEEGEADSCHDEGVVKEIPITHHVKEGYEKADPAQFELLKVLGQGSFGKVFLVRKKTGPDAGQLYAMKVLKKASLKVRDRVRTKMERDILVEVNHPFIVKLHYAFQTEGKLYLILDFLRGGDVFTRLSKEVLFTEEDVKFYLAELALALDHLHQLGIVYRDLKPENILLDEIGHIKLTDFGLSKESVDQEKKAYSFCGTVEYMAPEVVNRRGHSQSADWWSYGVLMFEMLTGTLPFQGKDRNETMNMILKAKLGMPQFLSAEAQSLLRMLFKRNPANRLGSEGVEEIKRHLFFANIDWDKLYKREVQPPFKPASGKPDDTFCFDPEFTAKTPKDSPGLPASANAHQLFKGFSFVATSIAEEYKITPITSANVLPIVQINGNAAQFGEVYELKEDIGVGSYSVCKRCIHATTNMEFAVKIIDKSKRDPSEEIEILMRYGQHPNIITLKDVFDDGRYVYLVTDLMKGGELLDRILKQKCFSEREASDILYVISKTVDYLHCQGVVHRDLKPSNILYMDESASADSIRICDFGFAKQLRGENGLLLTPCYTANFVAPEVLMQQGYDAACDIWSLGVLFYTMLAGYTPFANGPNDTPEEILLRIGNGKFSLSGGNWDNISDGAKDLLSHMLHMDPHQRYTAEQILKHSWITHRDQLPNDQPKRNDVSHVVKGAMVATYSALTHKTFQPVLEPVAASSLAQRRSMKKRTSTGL
Activity calls are given as the source filed them.
Pick one and only one: Y = active, N = inactive

Could you please tell me the result logged for CN1CCC(CNc2ccc3ncc(-c4cccc(OC(F)(F)F)c4)n3n2)CC1 [SGI-1776] in this assay? Y

Could you please tell me the result logged for Cc1nc(N)sc1-c1ccnc(Nc2ccc(N3CCOCC3)cc2)n1 [CYC-116] in this assay? N

Could you please tell me the result logged for CCN1CCN(Cc2ccc(-c3cc4c(N[C@H](C)c5ccccc5)ncnc4[nH]3)cc2)CC1 [AEE-788] in this assay? N

Could you please tell me the result logged for O=C(O)[C@]1(Cc2cccc(Nc3nccs3)n2)CC[C@@H](Oc2cccc(Cl)c2F)CC1 [MK-5108] in this assay? N

Could you please tell me the result logged for Cc1c(F)cc(C(=O)NC2CC2)cc1-c1ccc(C(=O)NCC(C)(C)C)cn1 [LOSMAPIMOD] in this assay? N

###

// endpoint Kd / system TGF-beta receptor type-2 (Homo sapiens, UniProt P37173); further: in the data inactive means no Kd found up to 30 µM
Active and inactive are the calls of the source.

Previously resolved entries follow.
compound	value
CCS(=O)(=O)N1CC(CC#N)(n2cc(-c3ncnc4[nH]ccc34)cn2)C1	> 30 µM (inactive)
CN1CCC(COc2cnc(-c3cccc(Cn4nc(-c5cccc(C#N)c5)ccc4=O)c3)nc2)CC1	> 30 µM (inactive)
Cc1nc(N)sc1-c1ccnc(Nc2ccc(N3CCOCC3)cc2)n1	0.3 µM (active)

Kd reported for this compound COc1cc(N2CCC(N3CCN(C)CC3)CC2)ccc1Nc1ncnc(Nc2ccccc2S(=O)(=O)C(C)C)n1 : > 30 µM (inactive)

###

// endpoint Kd / system High affinity nerve growth factor receptor (Homo sapiens, UniProt P04629); further: in the data inactive means no Kd found up to 30 µM
Activity calls are given as the source filed them.

Previously resolved entries follow.
compound	measured-property	value
O=C(c1ccc(F)c(F)c1Nc1ccc(I)cc1F)N1CC(O)([C@@H]2CCCCN2)C1	Kd	> 30 µM (inactive)
CCCS(=O)(=O)Nc1ccc(F)c(C(=O)c2c[nH]c3ncc(-c4ccc(Cl)cc4)cc23)c1F	Kd	> 30 µM (inactive)

Kd of O=C(Nc1ccc(-c2ccnc(Nc3ccc(N4CCOCC4)cc3)n2)cc1)C1CCCN1 (centres undefined) , assay on High affinity nerve growth factor receptor (Homo sapiens, UniProt P04629), is > 30 µM (inactive)

Kd of Cn1ncc(Cl)c1-c1cc(C(=O)N[C@H](CN)Cc2cccc(F)c2)sc1Cl , assay on High affinity nerve growth factor receptor (Homo sapiens, UniProt P04629), is > 30 µM (inactive)

Kd of COc1cc(OC)c(/C=C/S(=O)(=O)Cc2ccc(OC)c(NCC(=O)O)c2)c(OC)c1 , assay on High affinity nerve growth factor receptor (Homo sapiens, UniProt P04629), is > 30 µM (inactive)

###

Biological target: Ephrin type-A receptor 4 (Homo sapiens, UniProt P54764); further: in the data inactive means no Kd found up to 30 µM
Sequence (P54764 whole entry): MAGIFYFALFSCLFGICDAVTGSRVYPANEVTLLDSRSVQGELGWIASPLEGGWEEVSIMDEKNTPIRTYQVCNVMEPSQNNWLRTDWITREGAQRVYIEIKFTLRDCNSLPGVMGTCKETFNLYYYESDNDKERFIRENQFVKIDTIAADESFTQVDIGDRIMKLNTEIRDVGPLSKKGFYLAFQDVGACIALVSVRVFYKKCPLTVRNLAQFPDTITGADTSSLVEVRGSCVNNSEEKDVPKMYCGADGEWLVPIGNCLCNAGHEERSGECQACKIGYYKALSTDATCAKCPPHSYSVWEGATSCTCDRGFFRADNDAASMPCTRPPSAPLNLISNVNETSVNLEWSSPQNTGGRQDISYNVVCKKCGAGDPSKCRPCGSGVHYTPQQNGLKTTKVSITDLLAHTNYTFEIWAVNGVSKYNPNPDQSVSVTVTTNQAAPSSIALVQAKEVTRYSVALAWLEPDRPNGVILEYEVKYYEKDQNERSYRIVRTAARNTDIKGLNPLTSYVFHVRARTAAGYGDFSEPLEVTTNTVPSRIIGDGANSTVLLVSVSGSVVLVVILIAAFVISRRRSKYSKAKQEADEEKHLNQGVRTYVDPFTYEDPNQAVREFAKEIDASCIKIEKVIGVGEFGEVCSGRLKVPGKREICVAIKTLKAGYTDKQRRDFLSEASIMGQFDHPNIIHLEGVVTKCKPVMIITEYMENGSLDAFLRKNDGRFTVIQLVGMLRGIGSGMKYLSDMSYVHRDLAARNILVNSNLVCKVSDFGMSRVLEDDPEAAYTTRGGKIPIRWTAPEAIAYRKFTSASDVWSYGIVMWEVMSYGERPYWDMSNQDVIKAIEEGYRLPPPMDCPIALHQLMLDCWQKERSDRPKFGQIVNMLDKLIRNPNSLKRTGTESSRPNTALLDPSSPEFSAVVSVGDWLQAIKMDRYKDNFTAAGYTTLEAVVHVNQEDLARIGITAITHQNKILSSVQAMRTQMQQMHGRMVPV
The source made the active and inactive calls.
Pick one and only one: TRUE (active), FALSE (inactive)

// known answers, use as guide
molecule	assigned-label
Cc1c(F)cc(C(=O)NC2CC2)cc1-c1ccc(C(=O)NCC(C)(C)C)cn1	FALSE
CNC(=O)CN1CCC(Oc2cc3c(Nc4cccc(Cl)c4F)ncnc3cc2OC)CC1	TRUE
C1=C/COCc2cc(ccc2OCCN2CCCC2)Nc2nccc(n2)-c2cccc(c2)COC/1	FALSE

Could you please tell me the result logged for CCn1c(=O)c(-c2cc[nH]n2)cc2c(C)nc(N)nc21 in this assay? FALSE

Could you please tell me the result logged for CNC(=O)c1ccc(C)c(-n2c(C)cc(OCc3ccc(F)cc3F)c(Br)c2=O)c1 in this assay? FALSE

Could you please tell me the result logged for Cn1cc(-c2ccc(F)c(C(F)(F)F)c2)nc1C1CCN(c2ncnc3[nH]ncc23)CC1 in this assay? FALSE

Could you please tell me the result logged for Cc1ccc(NC(=O)c2ccc(CN3CC[C@H](N(C)C)C3)c(C(F)(F)F)c2)cc1Nc1nccc(-c2cncnc2)n1 in this assay? TRUE

Could you please tell me the result logged for Cc1cc2c(F)c(Oc3ncnn4cc(OC[C@@H](C)OC(=O)[C@H](C)N)c(C)c34)ccc2[nH]1 [BRIVANIB ALANINATE] in this assay? FALSE

Could you please tell me the result logged for CC(=O)Nc1cccc(-n2c(=O)n(C3CC3)c(=O)c3c(Nc4ccc(I)cc4F)n(C)c(=O)c(C)c32)c1 in this assay? FALSE

###

Target: Tyrosine-protein kinase Tec (Homo sapiens, UniProt P42680); further: in the data inactive means no Kd found up to 30 µM
Sequence (P42680 whole entry): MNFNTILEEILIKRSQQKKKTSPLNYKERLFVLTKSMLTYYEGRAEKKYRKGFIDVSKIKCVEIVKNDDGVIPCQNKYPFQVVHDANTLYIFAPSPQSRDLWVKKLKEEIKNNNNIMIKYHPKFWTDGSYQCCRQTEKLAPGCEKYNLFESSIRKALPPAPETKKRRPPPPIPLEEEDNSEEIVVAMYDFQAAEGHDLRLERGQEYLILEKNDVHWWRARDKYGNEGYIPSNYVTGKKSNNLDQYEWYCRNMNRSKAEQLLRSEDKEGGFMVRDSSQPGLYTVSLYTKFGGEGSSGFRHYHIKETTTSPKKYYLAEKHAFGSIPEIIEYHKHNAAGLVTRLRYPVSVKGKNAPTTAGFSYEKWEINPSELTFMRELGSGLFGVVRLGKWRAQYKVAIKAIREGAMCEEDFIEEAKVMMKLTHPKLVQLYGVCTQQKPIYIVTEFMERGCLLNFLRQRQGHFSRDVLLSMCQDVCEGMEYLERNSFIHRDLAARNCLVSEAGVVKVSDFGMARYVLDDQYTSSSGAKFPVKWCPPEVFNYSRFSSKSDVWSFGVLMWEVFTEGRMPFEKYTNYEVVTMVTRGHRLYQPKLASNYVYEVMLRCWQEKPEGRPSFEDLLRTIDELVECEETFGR
Calls of active or inactive are those of the source.
Pick one and only one: active, inactive

// known answers, use as guide
molecule	assigned-label
Cc1cc(-c2cc(O)ccc2Cl)cc2nnc(Nc3ccc(OCCN4CCCC4)cc3)nc12	inactive
O=C1NC(=O)/C(=C/c2ccc3nccc(-c4ccncc4)c3c2)S1 [GSK-1059615]	inactive
CN1N=C(N)c2cn([C@@H]3O[C@H](COP(=O)(O)O)[C@@H](O)[C@H]3O)c3ncnc1c23 [TRICIRIBINE PHOSPHATE]	inactive
CNC(=O)c1ccc(-c2cnc3ncc(Cc4ccc5ncccc5c4)n3n2)cc1F [CAPMATINIB]	inactive
COc1ccc(-c2ccc3c(N4CCOC[C@@H]4C)nc(N4CCOC[C@@H]4C)nc3n2)cc1CO [AZD-8055]	inactive

Could you please tell me the result logged for Cc1ccc(-n2nc(C(C)(C)C)cc2NC(=O)NCc2cc(F)ccc2Oc2ccc3c(cnn3CCO)c2)cc1 [PEXMETINIB] in this assay? inactive

Could you please tell me the result logged for CCn1c(=O)c(-c2cc[nH]n2)cc2c(C)nc(N)nc21 [VOXTALISIB] in this assay? inactive

Could you please tell me the result logged for COc1cc(N2CCC(N3CCN(C)CC3)CC2)ccc1Nc1ncnc(Nc2ccccc2S(=O)(=O)C(C)C)n1 [ASP-3026] in this assay? active

Could you please tell me the result logged for N[C@@H]1CCCN(c2c(/C=C3\SC(=O)NC3=O)cccc2-c2ccccc2)C1 in this assay? inactive

Could you please tell me the result logged for Cn1ncc(Cl)c1-c1cc(C(=O)N[C@H](CN)Cc2cccc(F)c2)sc1Cl [AFURESERTIB] in this assay? inactive

Could you please tell me the result logged for CCS(=O)(=O)N1CC(CC#N)(n2cc(-c3ncnc4[nH]ccc34)cn2)C1 [BARICITINIB] in this assay? inactive

Could you please tell me the result logged for CN(C)C(=O)c1cc2cnc(Nc3ccc(N4CCNCC4)cn3)nc2n1C1CCCC1 [RIBOCICLIB] in this assay? inactive

Could you please tell me the result logged for Cn1cc(-c2ccc(F)c(C(F)(F)F)c2)nc1C1CCN(c2ncnc3[nH]ncc23)CC1 [LY-2584702] in this assay? inactive

Could you please tell me the result logged for CCc1cnn2c(NCc3ccc[n+]([O-])c3)cc(N3CCCC[C@H]3CCO)nc12 [DINACICLIB] in this assay? inactive

Could you please tell me the result logged for CNC(=O)c1ccc(C)c(-n2c(C)cc(OCc3ccc(F)cc3F)c(Br)c2=O)c1 [PH-797804] in this assay? inactive
